Test system: MRSA (IHMA #510059)
Test: MIC determination using susceptibility method (broth microdilution)
Assay type: cell-based
Settings: Staphylococcus aureus, read-out: MIC (μg/ml) MRSA (IHMA #510059)
Some compounds, each annotated with its measured MIC.

[
  {
    "COMPOUND": "Cc1c(C2CN(C(=O)/C=C/c3cnc4c(c3)CC3(CCN(C)CC3)C(=O)N4)C2)oc2ccccc12 [Example 68]",
    "UNITS": "µg/mL",
    "MIC": 0.5
  },
  {
    "COMPOUND": "O=C1CCc2cc(/C=C/C(=O)N3CC(c4cc5ccccc5o4)C3)cnc2N1 [Example 59]",
    "UNITS": "µg/mL",
    "MIC": 0.06
  },
  {
    "COMPOUND": "O=C1CCc2cc(/C=C/C(=O)N3CC(OCCc4cccs4)C3)cnc2N1 [Example 29]",
    "UNITS": "µg/mL",
    "MIC": 0.5
  },
  {
    "COMPOUND": "CN1CCC2(CC1)Cc1cc(/C=C/C(=O)N3CC(OCCc4cccs4)C3)cnc1NC2=O [Example 66]",
    "UNITS": "µg/mL",
    "MIC": 0.5
  },
  {
    "COMPOUND": "CCCCOC1CN(C(=O)/C=C/c2cnc3c(c2)CC2(CCN(C)CC2)C(=O)N3)C1 [Example 63]",
    "UNITS": "µg/mL",
    "MIC": 1
  },
  {
    "COMPOUND": "CN1CCC2(CC1)Cc1cc(/C=C/C(=O)N3CC(c4cc5ccccc5o4)C3)cnc1NC2=O [Example 69]",
    "UNITS": "µg/mL",
    "MIC": 1
  },
  {
    "COMPOUND": "O=C1CCc2cc(/C=C/C(=O)N3CC(OCc4cccs4)C3)cnc2N1 [Example 12]",
    "UNITS": "µg/mL",
    "MIC": 1
  },
  {
    "COMPOUND": "Cc1c(C2CN(C(=O)/C=C/c3cnc4c(c3)CCC(=O)N4)C2)oc2ccccc12 [Example 67]",
    "UNITS": "µg/mL",
    "MIC": 0.06
  }
]

* * *

Target: human albumin (HSA) (Homo sapiens (Human))
Sequence (P02768 25-609): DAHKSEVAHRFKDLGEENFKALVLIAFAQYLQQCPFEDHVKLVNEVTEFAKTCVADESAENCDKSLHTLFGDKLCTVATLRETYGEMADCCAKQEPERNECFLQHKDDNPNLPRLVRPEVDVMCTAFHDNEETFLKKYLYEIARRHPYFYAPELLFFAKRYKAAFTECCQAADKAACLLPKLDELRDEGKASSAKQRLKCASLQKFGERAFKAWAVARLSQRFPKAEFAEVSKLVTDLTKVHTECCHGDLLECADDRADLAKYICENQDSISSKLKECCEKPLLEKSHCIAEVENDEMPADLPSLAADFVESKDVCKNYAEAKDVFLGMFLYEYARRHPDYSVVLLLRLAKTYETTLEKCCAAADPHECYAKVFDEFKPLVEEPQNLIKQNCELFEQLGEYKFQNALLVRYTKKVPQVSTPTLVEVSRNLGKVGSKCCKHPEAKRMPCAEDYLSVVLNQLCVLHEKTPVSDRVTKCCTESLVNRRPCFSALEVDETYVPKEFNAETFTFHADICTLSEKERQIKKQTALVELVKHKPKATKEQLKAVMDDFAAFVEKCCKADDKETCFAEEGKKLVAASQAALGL
Experiment: HSA binding analysis using a chiral HSA column
Type: in vitro ADME
Details: AB%=[k′/(k′+1)]*100; chiral HSA column, pH 7.0
Label scheme for HSA Binding (%): lower than 60% is no, 60% and above is yes.

[
  {
    "COMPOUND": "O=C1CCc2cc(/C=C/C(=O)N3CC(OCCc4cccs4)C3)cnc2N1 [Example 29]",
    "ASSIGNED CATEGORY": "no"
  },
  {
    "COMPOUND": "O=C1CCc2cc(/C=C/C(=O)N3CC(c4cc5ccccc5o4)C3)cnc2N1 [Example 59]",
    "ASSIGNED CATEGORY": "yes"
  },
  {
    "COMPOUND": "Cc1c(C2CN(C(=O)/C=C/c3cnc4c(c3)CCC(=O)N4)C2)oc2ccccc12 [Example 67]",
    "ASSIGNED CATEGORY": "yes"
  },
  {
    "COMPOUND": "CCCO/N=C(/C)C1CN(C(=O)/C=C/c2cnc3c(c2)CCC(=O)N3)C1 [Example 71]",
    "ASSIGNED CATEGORY": "no"
  },
  {
    "COMPOUND": "Cc1c(C2CN(C(=O)/C=C/c3cnc4c(c3)CC3(CCN(C)CC3)C(=O)N4)C2)oc2ccccc12 [Example 68]",
    "ASSIGNED CATEGORY": "yes"
  },
  {
    "COMPOUND": "CN1CCC2(CC1)Cc1cc(/C=C/C(=O)N3CC(c4cc5ccccc5o4)C3)cnc1NC2=O [Example 69]",
    "ASSIGNED CATEGORY": "yes"
  },
  {
    "COMPOUND": "O=C1CCc2cc(/C=C/C(=O)N3CC(OCc4cccs4)C3)cnc2N1 [Example 12]",
    "ASSIGNED CATEGORY": "no"
  },
  {
    "COMPOUND": "CCCCOC1CN(C(=O)/C=C/c2cnc3c(c2)CC2(CCN(C)CC2)C(=O)N3)C1 [Example 63]",
    "ASSIGNED CATEGORY": "no"
  },
  {
    "COMPOUND": "CCCO/N=C(\\C)C1CN(C(=O)/C=C/c2cnc3c(c2)CCC(=O)N3)C1 [Example 70]",
    "ASSIGNED CATEGORY": "no"
  }
]
